Cited source for all entries: patent US20250186321A1

Assay: Appearance of formulation (state at 25° C.)
Type: physicochemical
Settings: 25° C.; components (A) and (B) at the compounding molar ratio shown
MEASURED_PARAMETER: state at 25° C.

CCCC(=O)O.C[C@H](N)C(=O)O [Formulation 151] | Solid
NCCCC[C@H](N)C(=O)O.O=C1O[C@H]([C@H](O)CO)C(O)=C1O [Formulation 21] | Liquid
C[C@@H](O)[C@H](N)C(=O)O.O=C(O)C[C@H](O)C(=O)O [Formulation 266] | Solid
CCCCCC(=O)O.NCC(=O)O [Formulation 130] | Solid
N[C@@H](CO)C(=O)O.O=C(O)[C@H](O)[C@@H](O)[C@H](O)[C@H](O)CO [Formulation 243] | Liquid
CCCCCC(=O)O.CC[C@H](C)[C@H](N)C(=O)O [Formulation 224] | Solid

Exercise: Data request, read-out state at 25° C., for NCCCC[C@H](N)C(=O)O.N[C@@H](CCC(=O)O)C(=O)O.N[C@@H](CCC(=O)O)C(=O)O [Formulation 34]
Solution: Solid

Exercise: Continue with C[C@H](N)C(=O)O.O=C(O)C[C@H](O)C(=O)O [Formulation 161]
Solution: Solid

Exercise: Next: NCCCC[C@H](N)C(=O)O.N[C@@H](CCC(=O)O)C(=O)O [Formulation 13]
Solution: Solid

###

Test: Water retention evaluation (moisture reduction rate)
Format: physicochemical
Conditions: left until the moisture content remained unchanged; based on final moisture content
MEASURED_PARAMETER: Presence or absence of hydrates

NCCCC[C@H](N)C(=O)O.O=C(O)[C@H](O)[C@@H](O)[C@H](O)[C@H](O)CO.O=C(O)[C@H](O)[C@@H](O)[C@H](O)[C@H](O)CO | Present
N=C(N)NCCC[C@H](N)C(=O)O.O=C(O)[C@H](O)[C@@H](O)[C@H](O)[C@H](O)CO | Present
NCCCC[C@H](N)C(=O)O.NCCCC[C@H](N)C(=O)O.NCCCC[C@H](N)C(=O)O.O=C(O)CC(O)(CC(=O)O)C(=O)O.O=C(O)CC(O)(CC(=O)O)C(=O)O | Present

###

Test: Water retention evaluation (moisture reduction rate)
Assay type: physicochemical
Conditions: number of hydrated water based on final moisture content
MEASURED_PARAMETER: n-hydrate

Consider the worked cases shown below.
CC(O)C(=O)O.N=C(N)NCCC[C@H](N)C(=O)O | Mono-
NCCCC[C@H](N)C(=O)O.O=C(O)[C@H](O)[C@@H](O)[C@H](O)[C@H](O)CO | Dihydrate
N[C@@H](CO)C(=O)O.O=C(O)[C@H](O)[C@@H](O)[C@H](O)[C@H](O)CO | Mono-
N=C(N)NCCC[C@H](N)C(=O)O.O=C(O)[C@H](O)[C@@H](O)[C@H](O)[C@H](O)CO | Mono-

Exercise: Find the recorded n-hydrate belonging to "NCCCC(=O)O.O=C(O)[C@H](O)[C@@H](O)[C@H](O)[C@H](O)CO" and report it.
Solution: Mono-

Exercise: And the next one, "NCCCC[C@H](N)C(=O)O.NCCCC[C@H](N)C(=O)O.NCCCC[C@H](N)C(=O)O.O=C(O)CC(O)(CC(=O)O)C(=O)O.O=C(O)CC(O)(CC(=O)O)C(=O)O" ?
Solution: Dihydrate

Exercise: Param item: "NCC(=O)O.O=C(O)CC(O)(CC(=O)O)C(=O)O"
Solution: Hemi-
